# Tested on: M. tuberculosis clinical isolate 1097
# testProtocol: microbe, parasite or virus in culture
# Assay type: cell-based
# statedConditions: Mycobacterium tuberculosis
measuredParameter: MIC (µg/mL)
Reply with just the number (in µg/mL).

Q: State MIC on M. tuberculosis clinical isolate 1097. Entry: "CO[C@H]1/C=C/O[C@@]2(C)Oc3c(C)c(O)c4c(O)c(c(/C=N/N5CCN(C)CC5)c(O)c4c3C2=O)NC(=O)/C(C)=C\C=C\[C@H](C)[C@H](O)[C@@H](C)[C@@H](O)[C@@H](C)[C@H](OC(C)=O)[C@@H]1C"
Ans: 0.25

Q: State MIC on M. tuberculosis clinical isolate 1097. Entry: "[H]/N=C(/N)N[C@H]1[C@H](O)[C@@H](O)[C@H](O[C@@H]2O[C@@H](C)[C@](O)(C=O)[C@H]2O[C@@H]2O[C@@H](CO)[C@H](O)[C@@H](O)[C@@H]2NC)[C@@H](N/C(N)=N\[H])[C@@H]1O"
Ans: 4

Q: State MIC on M. tuberculosis clinical isolate 1097. Entry: "NNC(=O)c1ccncc1"
Ans: 2

Q: State MIC on M. tuberculosis clinical isolate 1097. Entry: "CC[C@@H](CO)NCCN[C@@H](CC)CO"
Ans: 32

----------
Kindly state MIC for each of the entries shown.
# Tested on: M. tuberculosis clinical isolate 512
# testProtocol: microbe, parasite or virus in culture
# Format: cell-based
# statedConditions: Mycobacterium tuberculosis
Reply with just the number (in µg/mL).

Q: State MIC on M. tuberculosis clinical isolate 512. Entry: "NNC(=O)c1ccncc1"
Ans: 1

Q: State MIC on M. tuberculosis clinical isolate 512. Entry: "CC[C@@H](CO)NCCN[C@@H](CC)CO"
Ans: 4

Q: State MIC on M. tuberculosis clinical isolate 512. Entry: "[H]/N=C(/N)N[C@H]1[C@H](O)[C@@H](O)[C@H](O[C@@H]2O[C@@H](C)[C@](O)(C=O)[C@H]2O[C@@H]2O[C@@H](CO)[C@H](O)[C@@H](O)[C@@H]2NC)[C@@H](N/C(N)=N\[H])[C@@H]1O"
Ans: 0.5

----------
# System: M. tuberculosis strain 512
# testProtocol: Drug sensitivity testing, Bactec MGIT 960
# Assay type: cell-based, Mycobacterium tuberculosis
# Set-up: key: sensitive (S); resistant (R)
measuredParameter: Drug sensitivity test result

smilesString	tgt	measuredResult
NNC(=O)c1ccncc1	M. tuberculosis strain 512	R
CO[C@H]1/C=C/O[C@@]2(C)Oc3c(C)c(O)c4c(O)c(c(/C=N/N5CCN(C)CC5)c(O)c4c3C2=O)NC(=O)/C(C)=C\C=C\[C@H](C)[C@H](O)[C@@H](C)[C@@H](O)[C@@H](C)[C@H](OC(C)=O)[C@@H]1C	M. tuberculosis strain 512	R
CC[C@@H](CO)NCCN[C@@H](CC)CO	M. tuberculosis strain 512	R
[H]/N=C(/N)N[C@H]1[C@H](O)[C@@H](O)[C@H](O[C@@H]2O[C@@H](C)[C@](O)(C=O)[C@H]2O[C@@H]2O[C@@H](CO)[C@H](O)[C@@H](O)[C@@H]2NC)[C@@H](N/C(N)=N\[H])[C@@H]1O	M. tuberculosis strain 512	S

----------
Kindly state MIC for each of the entries shown.
# Test system: M. tuberculosis H37Rv strain (ATCC 27294)
# testProtocol: Resazurin microtiter assay (REMA)
# Type: cell-based
# statedConditions: Mycobacterium tuberculosis, drug alone
Reply with just the number (in µg/mL).

Q: Look up and state reported MIC for CO[C@H]1/C=C/O[C@@]2(C)Oc3c(C)c(O)c4c(O)c(c(/C=N/N5CCN(C)CC5)c(O)c4c3C2=O)NC(=O)/C(C)=C\C=C\[C@H](C)[C@H](O)[C@@H](C)[C@@H](O)[C@@H](C)[C@H](OC(C)=O)[C@@H]1C [RIF, rifampicin]
Ans: 0.25

Q: Look up and state reported MIC for NNC(=O)c1ccncc1 [INH, isoniazid]
Ans: 0.125

Q: Look up and state reported MIC for [H]/N=C(/N)N[C@H]1[C@H](O)[C@@H](O)[C@H](O[C@@H]2O[C@@H](C)[C@](O)(C=O)[C@H]2O[C@@H]2O[C@@H](CO)[C@H](O)[C@@H](O)[C@@H]2NC)[C@@H](N/C(N)=N\[H])[C@@H]1O [SM, streptomycin]
Ans: 0.125

Q: Look up and state reported MIC for CC[C@@H](CO)NCCN[C@@H](CC)CO [EMB, ethambutol]
Ans: 1

----------
# Tested on: M. tuberculosis strain 1097
# testProtocol: Drug sensitivity testing, Bactec MGIT 960
# Type: cell-based, Mycobacterium tuberculosis
# Set-up: key: sensitive (S); resistant (R)

compound	Drug sensitivity test result
NNC(=O)c1ccncc1 [INH, isoniazid]	R
CO[C@H]1/C=C/O[C@@]2(C)Oc3c(C)c(O)c4c(O)c(c(/C=N/N5CCN(C)CC5)c(O)c4c3C2=O)NC(=O)/C(C)=C\C=C\[C@H](C)[C@H](O)[C@@H](C)[C@@H](O)[C@@H](C)[C@H](OC(C)=O)[C@@H]1C [RIF, rifampicin]	S
CC[C@@H](CO)NCCN[C@@H](CC)CO [EMB, ethambutol]	R
[H]/N=C(/N)N[C@H]1[C@H](O)[C@@H](O)[C@H](O[C@@H]2O[C@@H](C)[C@](O)(C=O)[C@H]2O[C@@H]2O[C@@H](CO)[C@H](O)[C@@H](O)[C@@H]2NC)[C@@H](N/C(N)=N\[H])[C@@H]1O [SM, streptomycin]	R
